Numbers sourced from PubChem BioAssay (Tox21).

# Procedure Summary: qHTS assay for identifying genotoxic compounds that show differential cytotoxicity against isogenic chicken DT40 cell lines with known DNA damage response pathways - wild type cell line (AID 743012); note: nearly all actives have a fitted effect of over 60% in size
# Condition Info: DT40 wild type chicken cells viability, CellTiter-Glo, 40 h; series mostly up to 68.4 µM
Results filed as inconclusive are left out. Active and inactive are the calls of the source. Calls come from the whole dose curve; as a rule, active = well fitted cell-killing curve with a large enough effect in the repeat runs; inconclusive = weak or mixed curves, or effect the other way; inactive = no such curve, though single readings can be large or run the other way.
The reply should be one of these categories: Y for active, N for inactive

(Q) Hi, sorry to bother you, what did the test record for `CCCCc1ncc(/C=C(\Cc2cccs2)C(=O)O)n1Cc1ccc(C(=O)O)cc1` ?
(A) N

(Q) What is the recorded call for this compound in the test? `COc1ccc(C(=O)Nc2nc3ccccc3c(NCc3ccccc3)c2C#N)cc1`
(A) Y

(Q) Could you kindly confirm the outcome this assay logged for `C=CCOC(=O)CCC1CCCCC1` ?
(A) N

(Q) Lab log entry: `CN(C)CCCN1c2ccccc2Sc2ccccc21` — outcome as called in the assay?
(A) Y

(Q) Can you look up the reported call for `O=C(O)CC(=O)C(=O)O` for me?
(A) N

----------
# Procedure Summary: A CellTox Green Cytotoxicity Assay to monitor cytotoxicity in HepG2 cells - 0 hour (AID 1224882); note: nearly all actives have a fitted effect of over 35% in size
# Condition Info: CellTox Green fluorescence; series mostly up to 76.8 µM
Calls of active or inactive are those of the source. Calls follow the shape of the dose curve; as a rule, active = well fitted activation curve with a large enough effect in the repeat runs; inconclusive = weak or mixed curves; inactive = flat fitted curve, though single readings scatter.
Observation Type: cytotoxicity

As a guide, the following entries are already answered.
• S=C([S-])NCCNC(=S)[S-].[Mn+2] = inactive
• COc1ccc(C(=O)N2CCN(CC(=O)N3CCOCC3)CC2)cc1 = inactive
• C[C@@H]1C[C@H]2O[C@@]3(O[C@@H]2C(C)(C)O)[C@H](O)[C@@]2(C)[C@@H]4CC[C@H]5C(C)(C)[C@@H](O[C@@H]6OC[C@@H](O)[C@H](O)[C@H]6O)CC[C@@]56C[C@@]46CC[C@]2(C)[C@@H]13 = inactive
• CC(=O)c1ccc2c(c1)N(CCCN(C)C)c1ccccc1S2 = inactive
• CCn1cc(C(=O)O)c(=O)c2cnc(N3CCNCC3)nc21 = inactive
• Clc1ccc(Cn2c(CN3CCCC3)nc3ccccc32)cc1 = inactive

(Q) What does the record list as cytotoxicity for `CC(=O)c1ccc2c(c1)N(CCCN1CCC(CCO)CC1)c1ccccc1S2` ?
(A) inactive

----------
# Target Under Test: Vitamin D3 receptor (Homo sapiens)
# Procedure Summary: qHTS assay to identify small molecule antagonists of the vitamin D receptor (VDR) signaling pathway (AID 743223)
# Condition Info: VDR-UAS-bla HEK293T, beta-lactamase FRET ratio, 16 h; series mostly up to 61 µM
Records with an inconclusive call do not appear. The source made the active and inactive calls. Calls come from the whole dose curve; as a rule, active = well fitted inhibition curve with a large enough effect in the signal ratio in the repeat runs (not every such curve was filed as active); inconclusive = weak or mixed curves, or effect the other way; inactive = no such curve, though single readings can be large or run the other way; the % refers to the signal ratio.
Observation Type: activity change, negative = inhibition

- CCN(CC)CCOC(=O)C(Cc1cccc2ccccc12)CC1CCCO1 (stereo not drawn): inactive
- CCOC(=O)COC(=O)c1cc(Oc2ccc(C(F)(F)F)cc2Cl)ccc1[N+](=O)[O-]: inactive
- O=C(O)C(S)C(S)C(=O)O (stereo not drawn): inactive

----------
# Procedure Summary: A CellTox Green Cytotoxicity Assay to monitor cytotoxicity in HepG2 cells - 24 hour (AID 1224878); note: nearly all actives have a fitted effect of over 45% in size
# Condition Info: CellTox Green fluorescence; series mostly up to 76.8 µM
Records with an inconclusive call do not appear. Activity calls are given as the source filed them. Calls come from the whole dose curve; as a rule, active = well fitted activation curve with a large enough effect in the repeat runs; inconclusive = weak or mixed curves; inactive = flat fitted curve, though single readings scatter.
Choose one outcome from this list and give only that: active, inactive

(Q) Just curious, what result did `Nc1ccc(S(=O)(=O)Nc2ccccc2)cc1` get here?
(A) inactive

(Q) I'd appreciate the recorded outcome for `CCCCCCc1ccc(-c2ccc(C#N)cc2)cc1` from this test.
(A) inactive

(Q) I'd appreciate the recorded outcome for `O=C(OCCCCCCOC(=O)c1ccccc1)c1ccccc1` from this test.
(A) inactive

(Q) Hi, sorry to bother you, what did the test record for `CCOC(=O)COC(=O)c1cc(Oc2ccc(C(F)(F)F)cc2Cl)ccc1[N+](=O)[O-]` ?
(A) inactive

(Q) For this molecule, state the assay outcome: `NC(=O)C(c1ccccc1)(c1ccccc1)[C@@H]1CCN(CCc2ccc3c(c2)CCO3)C1`
(A) active

(Q) I would be grateful if you could indicate the recorded call for `CC(=O)[O][Al]` .
(A) inactive

(Q) Dear all, I need the recorded test outcome for `Nc1ncn([C@H]2C[C@H](O)[C@@H](CO)O2)c(=O)n1` , thank you.
(A) inactive

(Q) What classification did `CC(C)C[C@H]1C(=O)N2CCC[C@H]2[C@]2(O)O[C@](NC(=O)[C@@H]3C=C4c5cccc6[nH]c(Br)c(c56)C[C@H]4N(C)C3)(C(C)C)C(=O)N12` end up with in this test?
(A) inactive

(Q) Could you kindly confirm the outcome this assay logged for `CCN(CC)CCNC(=O)c1cc(Br)c(N)cc1OC` ?
(A) inactive

(Q) Record request — test call for `NCC(=O)CCC(=O)O`
(A) inactive

(Q) What was the test verdict on `C1CCCNCCC1` ?
(A) inactive

(Q) Tell me the recorded outcome of this test for `CCO[C@H](Cc1ccc(OCCc2ccc(OS(C)(=O)=O)cc2)cc1)C(=O)O` .
(A) inactive

----------
# Procedure Summary: qHTS RealTime-Glo MT Cell Viability Assay in HEK293 cells - 40 hour (AID 1224874); note: potency is the fitted concentration of half-maximal effect; nearly all actives have a fitted effect of over 50% in size
# Condition Info: RealTime-Glo luminescence
Inconclusive results are not listed. Calls of active or inactive are those of the source. Calls come from the whole dose curve; as a rule, active = well fitted cell-killing curve with a large enough effect in the repeat runs; inconclusive = weak or mixed curves, or effect the other way; inactive = flat fitted curve, though single readings scatter.
Please respond with reported Potency for every item in the list.

(Q) State the recorded Potency for this entry: CCCNCC(O)COc1ccccc1C(=O)CCc1ccccc1 (stereo unspecified)
(A) 2.39 µM (active)

(Q) // lookup Potency for OCc1cc(C(O)CNCCCCCCOCCCCc2ccccc2)ccc1O (stereo unspecified)
(A) 23.9 µM (active)

(Q) I'd like to know its Potency. The molecule in question is `O=C(Cl)c1cc(C(=O)Cl)cc(C(=O)Cl)c1`
(A) 49 µM (active)

(Q) Fill blank: measured Potency of the molecule `CCN(CC)c1ccc2c(-c3ccccc3C(=O)O)c3ccc(=[N+](CC)CC)cc-3oc2c1` is ____.
(A) 24.5 µM (active)

(Q) Query (molecule): `CCOC(=O)NCCOc1ccc(Oc2ccccc2)cc1` ; field requested: Potency
(A) 21.9 µM (active)

(Q) Recorded Potency for COc1cc2nc(N3CCN(C(=O)C4COc5ccccc5O4)CC3)nc(N)c2cc1OC (stereo unspecified) , please?
(A) 23.9 µM (active)

(Q) # get_value(readout='Potency', item= `CC(=O)c1ccc2c(c1)N(CCCN1CCC(CCO)CC1)c1ccccc1S2` )
(A) 21.3 µM (active)

(Q) Can you share its Potency? I mean this molecule: `CCN(CC)CCNc1ccc(CNC=O)c2sc3ccc(OC)cc3c(=O)c12`
(A) 8.71 µM (active)

(Q) Requested read-out: Potency. Entry: `Cc1cccc(C)c1OCC(=O)N[C@@H](Cc1ccccc1)[C@@H](O)C[C@H](Cc1ccccc1)NC(=O)[C@H](C(C)C)N1CCCNC1=O`
(A) 23.9 µM (active)

(Q) Request the reported Potency associated with `CN(C)c1ccc(CCO)cc1`
(A) 34.5 µM (active)

(Q) Please report the recorded Potency for `O=[N+]([O-])c1cccc(S(=O)(=O)O)c1` .
(A) 17.6 µM (active)

(Q) Requested read-out: Potency. Entry: `COc1cc(C(=O)OCCCN2CCCN(CCCOC(=O)c3cc(OC)c(OC)c(OC)c3)CC2)cc(OC)c1OC`
(A) 9.52 µM (active)

(Q) Which Potency value is on record for `C=CC(=O)OCCOCCOC(=O)C=C` ?
(A) 31 µM (active)

(Q) What value of Potency has been reported for the following molecule? `CNCCCCOc1ccccc1Cc1ccccc1`
(A) 23.9 µM (active)

(Q) Return reported Potency; argument: OC(CN1CCC(Cc2ccc(F)cc2)CC1)c1ccc(Cl)cc1 (stereo unspecified)
(A) 9.52 µM (active)

(Q) Returns the measured Potency for the input molecule. Input: `CCOc1ccc(O)cc1`
(A) 11 µM (active)

----------
# Procedure Summary: qHTS assay to identify small molecule agonists of the farnesoid-X-receptor (FXR) signaling pathway - cell viability counter screen (AID 743218); note: nearly all actives have a fitted effect of over 45% in size
# Condition Info: FXR-bla HEK293T viability, CellTiter-Glo luminescence, 16 h; series mostly up to 62.6 µM
Records with an inconclusive call do not appear. The source made the active and inactive calls. The call rests on the fitted dose curve; in most records, active means well fitted cell-killing curve with a large enough effect in the repeat runs; inconclusive means weak or mixed curves, or effect the other way; inactive means no such curve, though single readings can be large or run the other way.
Choose the fitting class; nothing outside active, inactive is accepted.

(Q) What did this assay record as the result for `O=C(Nc1ccc(S(=O)(=O)N2CCOCC2)cc1)c1cc(Cl)ccc1NS(=O)(=O)c1ccc(Cl)s1` ?
(A) active

(Q) Hello, I am checking results. What call was entered for COCC(C)OC(C)=O (stereo not drawn) ?
(A) inactive

(Q) Could you check what this test reported for Cc1ccc(C(C)OC(=O)C2(C)CCC(C(=O)O)C2(C)C)cc1 (stereo not drawn) ?
(A) inactive

(Q) Recorded call for `O=C(O)C1(C(=O)O)CCC1.[NH2-].[NH2-].[Pt+2]` ?
(A) inactive

(Q) Recorded test call requested for `COS(=O)(=O)C(F)(F)F`
(A) inactive

(Q) Query: recorded result category for `C[C@H]1C[C@H]2[C@@H]3CCC4=CC(=O)C=C[C@]4(C)[C@@]3(Cl)[C@@H](O)C[C@]2(C)[C@@]1(O)C(=O)CO` in this test
(A) inactive

(Q) Recorded call for `NS(=O)(=O)c1ccc(N2CCCCS2(=O)=O)cc1` ?
(A) inactive

(Q) // return assay outcome for `CCCC(=O)Nc1ccc(O)c(C(C)=O)c1`
(A) inactive

(Q) # outcome recorded in this test, key = COc1ccnc(CS(=O)c2nc3ccc(OC(F)F)cc3[nH]2)c1OC (stereo not drawn)
(A) inactive

(Q) In this assay, the call recorded for `CC(C)O.CC(C)O.CCOC(=O)/C=C(\C)O.CCOC(=O)/C=C(\C)O.[Ti]` was what?
(A) inactive

(Q) Could you please tell me the result logged for CC(CSC(=O)c1ccccc1)C(=O)N1C[C@@H](Sc2ccccc2)C[C@H]1C(=O)O (stereo partly drawn) in this assay?
(A) inactive

(Q) Please share the test call associated with `Cc1oc2c(NC(=O)c3c(Cl)cccc3Cl)cccc2c1C(C)(C)O` .
(A) active

(Q) What classification did `CC(C)(C)Cl` end up with in this test?
(A) inactive

(Q) Could you check what this test reported for `COc1ccc(C(=O)Nc2nc3ccccc3c(NCc3ccccc3)c2C#N)cc1` ?
(A) inactive

(Q) # lookup: test call for `CCc1c(C(=O)NN2CCCCC2)nn(-c2ccc(Cl)cc2Cl)c1-c1ccc(Br)cc1`
(A) active

(Q) For `OC[C@H]1O[C@@H](OCCc2ccc(O)cc2)[C@H](O)[C@@H](O)[C@@H]1O` , what call appears in the results of this test?
(A) inactive

(Q) So what was the verdict on O=CC1CC=CCC1 (stereo not drawn) in this test?
(A) inactive

(Q) // return assay outcome for `CCOC(=O)COC(=O)c1cc(Oc2ccc(C(F)(F)F)cc2Cl)ccc1[N+](=O)[O-]`
(A) inactive

(Q) Tell me the assay call for `CN(C)c1ccc(CCO)cc1` please.
(A) inactive

(Q) Dear colleague, could you share the recorded outcome for `CCCCNc1ccc(C(=O)OCCOCCOCCOCCOCCOCCOCCOCCOCCOC)cc1` when you have a moment?
(A) inactive

(Q) Could you check what this test reported for `CCCCCC[C@@H](O)C/C=C\CCCCCCCC(=O)OC` ?
(A) inactive

(Q) How was `CNC(=O)CN(CCN(CCN(CC(=O)[O-])CC(=O)NC)CC(=O)[O-])CC(=O)[O-].O.[Gd+3]` classified in this test?
(A) inactive

(Q) Which outcome was assigned to OC(CN1CCC(Cc2ccc(F)cc2)CC1)c1ccc(Cl)cc1 (stereo not drawn) in this test?
(A) inactive

(Q) # fetch the recorded call for `c1ccc(CNCCNCc2ccccc2)cc1` here
(A) inactive

(Q) Test call for this molecule, please: `CCCCCCCCCCCCCCOS(=O)(=O)O`
(A) active

(Q) Could you please tell me the result logged for `O=C(O)c1ccc(S(=O)(=O)O)cc1C(=O)O` in this assay?
(A) inactive

(Q) Can you look up the reported call for `CC(C)=CCC/C(C)=C/CC/C(C)=C/CO` for me?
(A) inactive

(Q) For `CCCCCCCN` , what call appears in the results of this test?
(A) inactive

(Q) Which outcome did this test record for the molecule CCN(CC)CCOC(=O)C(Cc1cccc2ccccc12)CC1CCCO1 (stereo not drawn) ?
(A) inactive

(Q) Lab log entry: `CCCCCCCCCCCCN1CCCCCC1=O` — outcome as called in the assay?
(A) inactive

(Q) Could you please tell me the result logged for `Cc1cccc(Nc2ccccc2)c1` in this assay?
(A) inactive

(Q) What call does the record list for C[N+]1(C)CCC(OC(=O)C(O)(c2ccccc2)C2CCCC2)C1 (stereo not drawn) ?
(A) inactive

(Q) Record lookup: outcome of this test for `CCn1cc(C(=O)O)c(=O)c2cnc(N3CCNCC3)nc21` ?
(A) inactive

(Q) // return assay outcome for `C[C@@H]1C[C@H]2O[C@@]3(O[C@@H]2C(C)(C)O)[C@H](O)[C@@]2(C)[C@@H]4CC[C@H]5C(C)(C)[C@@H](O[C@@H]6OC[C@@H](O)[C@H](O)[C@H]6O)CC[C@@]56C[C@@]46CC[C@]2(C)[C@@H]13`
(A) inactive

(Q) # outcome recorded in this test, key = COC(=O)C1=C(C)NC(COC(N)=O)=C(C(=O)OC(C)C)C1c1cccc(Cl)c1Cl (stereo not drawn)
(A) inactive

(Q) How was `Cc1[nH]c(C)c(Cl)c(=O)c1Cl` classified in this test?
(A) inactive

(Q) Field: outcome | Entry: `CC1=CC=C(C(C)C)CC1`
(A) inactive

(Q) Status in this test for `COc1ccc(C(=O)N2CCN(CC(=O)N3CCOCC3)CC2)cc1` ?
(A) inactive

(Q) What classification did CCC(Cl)CCC(Cl)C(Cl)CC(Cl)C(Cl)C(Cl)CCl (stereo not drawn) end up with in this test?
(A) inactive

(Q) Hi, do you know how `CC1=CC[C@H](C(C)C)C=C1` came out in this test?
(A) inactive

(Q) Record lookup: outcome of this test for `COc1cc(Cl)c(OC)cc1N` ?
(A) inactive

(Q) Could you please tell me the result logged for `Brc1c2ccccc2cc2ccccc12` in this assay?
(A) inactive

(Q) Could you check what this test reported for `CC(C)(COC(=O)c1ccccc1)COC(=O)c1ccccc1` ?
(A) inactive

(Q) What outcome does the record of this test show for `CCO[Si](CCCCl)(OCC)OCC` ?
(A) inactive

(Q) Returns: the outcome recorded for `COc1cccc(N(C)C(=S)Oc2ccc3c(c2)CCCC3)n1` in this assay.
(A) inactive

(Q) Query: recorded result category for O=C1OC(CN2CCOCC2)CN1/N=C/c1ccc([N+](=O)[O-])o1 (stereo not drawn) in this test
(A) inactive

(Q) Recorded test call requested for O=C(O)C(S)C(S)C(=O)O (stereo not drawn)
(A) inactive

(Q) State the result this test recorded for `CCC(C)(C)CC` .
(A) inactive
